Every entry's value here was drawn from paper PMC4718766.

System: NCI-H1563 cells
Test: Compound sensitivity testing
Type: cell-based
Conditions: Homo sapiens, NCI-H1563, 48 h
endpointName: EC50

Query string: What does the data say about its EC50? Entry: CCN(CC)c1ccc(C2=NNC(=O)CC2C)cc1[N+](=O)[O-] (stereo not shown)
Result string: 10 to 100 nM

----------
Tested on: PC3 cells
Test: Compound sensitivity testing
Type: cell-based
Conditions: Homo sapiens, PC-3, 48 h
pEC50: −log10 of the molar value.
endpointName: pEC50

Query string: I would be grateful if you could share the reported pEC50 for CCN(CC)c1ccc(C2=NNC(=O)CC2C)cc1[N+](=O)[O-] (stereo not shown) .
Result string: < 6.00
